system: Caco-2; assay: Proliferation assay Caco-2; type: cell-based, human; settings: Caco-2, colon/rectum carcinoma; 4 days, crystal violet
Recorded pIC50, one value per entry.
Worth noting: pIC50 values are minus log10 of concentrations stated in mol/L.

| molecule | pIC50 |
| --- | --- |
| CCS(=N)(=O)c1ccc(Nc2ncc(C(F)(F)F)c(N[C@H](C)[C@@H](C)O)n2)cc1 (mixture of isomers) [Example 6-SI-2] | 7.59 |

I have this molecule here, C[C@@H](Nc1nc(Nc2ccc(S(=N)(=O)C3CC3)cc2)ncc1C(F)(F)F)C(C)(C)O (mixture of isomers) [Example 5-SI-2] , and I need its recorded pIC50.
7.38

Please give the result for C[C@@H](O)[C@@H](C)Oc1nc(Nc2ccc(S(C)(=N)=O)cc2)ncc1C(F)(F)F (mixture of isomers) [Example 2-SI-2] too.
7.62

Please give the result for C[C@@H](O)[C@@H](C)Oc1nc(Nc2ccc(S(C)(=N)=O)cc2)ncc1C(F)(F)F (mixture of isomers) [Example 2-SI-1] too.
7.10

Please give the result for CCS(=N)(=O)c1ccc(Nc2ncc(C(F)(F)F)c(N[C@H](C)[C@@H](C)O)n2)cc1 (mixture of isomers) [Example 6-SI-1] too.
6.92

Please give the result for CCS(=N)(=O)c1ccc(Nc2ncc(C(F)(F)F)c(N[C@H](C)C(C)(C)O)n2)cc1 (mixture of isomers) [Example 7-SI-2] too.
7.17

Please give the result for C[C@@H](Nc1nc(Nc2ccc(S(C)(=N)=O)cc2)ncc1C(F)(F)F)C(C)(C)O (mixture of isomers) [Example 9-SI-2] too.
6.70

* * *

biological target: CDK2/CycE (Homo sapiens, UniProt P24941); assay: CDK2/CycE kinase assay (Assay 2); conditions: 0.5 μM ATP, histon IIIS, 10 min 22° C.; read-out: CDK2/CycE (Assay 2) Concentration for half-maximal inhibition of the enzyme activity, IC50
Recorded pIC50, one value per entry.
Worth noting: pIC50 values are minus log10 of concentrations stated in mol/L.

| molecule | assay_value |
| --- | --- |
| CCS(=N)(=O)c1ccc(Nc2ncc(C(F)(F)F)c(N[C@H](C)C(C)(C)O)n2)cc1 (single isomer, unassigned) [Example 7-SI-1] | 8.40 |
| C[C@@H](O)[C@@H](C)Oc1nc(Nc2ccc(S(C)(=N)=O)cc2)ncc1C(F)(F)F (single isomer, unassigned) [Example 2-SI-1] | 8.22 |

I have this molecule here, CCS(=N)(=O)c1ccc(Nc2ncc(C(F)(F)F)c(N[C@H](C)[C@@H](C)O)n2)cc1 (mixture of isomers) [Example 6-SI-1] , and I need its recorded pIC50.
8.30

Please give the result for C[C@@H](Nc1nc(Nc2ccc(S(C)(=N)=O)cc2)ncc1C(F)(F)F)C(C)(C)O (single isomer, unassigned) [Example 9-SI-2] too.
8.52

Please give the result for C[C@@H](Nc1nc(Nc2ccc(S(=N)(=O)C3CC3)cc2)ncc1C(F)(F)F)C(C)(C)O (mixture of isomers) [Example 5-SI-1] too.
8.10

Please give the result for C[C@@H](O)[C@@H](C)Oc1nc(Nc2ccc(S(C)(=N)=O)cc2)ncc1C(F)(F)F (single isomer, unassigned) [Example 2-SI-2] too.
8.30

Please give the result for C[C@@H](Oc1nc(Nc2ccc(S(C)(=N)=O)cc2)ncc1C(F)(F)F)C(C)(C)O (mixture of isomers) too.
8.00

Please give the result for C[C@@H](Nc1nc(Nc2ccc(S(=N)(=O)C3CC3)cc2)ncc1C(F)(F)F)C(C)(C)O (mixture of isomers) [Example 5-SI-2] too.
8.10

Please give the result for C[C@@H](Nc1nc(Nc2ccc(S(C)(=N)=O)cc2)ncc1C(F)(F)F)C(C)(C)O (single isomer, unassigned) [Example 9-SI-1] too.
8.30

Please give the result for CCS(=N)(=O)c1ccc(Nc2ncc(C(F)(F)F)c(N[C@H](C)C(C)(C)O)n2)cc1 (single isomer, unassigned) [Example 7-SI-2] too.
8.30

Please give the result for C[C@@H](O)[C@@H](C)Nc1nc(Nc2ccc(S(C)(=N)=O)cc2)ncc1C(F)(F)F (single isomer, unassigned) [Example 8-SI-2] too.
8.40
